Some compounds, each annotated with its measured AUC at 6 h.
- procedure_details: AUC in rat at 10 mg/kg, po after 6 hrs
- experimental_setup: in vivo
recorded_endpoint: AUC at 6 h (µM·h)

{"smiles_repr": "CC[C@H]1CN(c2ncc(C(=O)NC3CC3)nc2C)CCN1C1CCN(C(=O)c2ccc(Cl)cc2)CC1", "display_unit": "µM·h", "reported": 8.4}
{"smiles_repr": "CC[C@H]1CN(c2ncc(C(=O)NC3CC3)nc2C)CCN1C1CCN(C(=O)c2ccc(Cl)nc2N)CC1", "display_unit": "µM·h", "reported": 22}
{"smiles_repr": "CC[C@H]1CN(c2ncc(C(=O)NC)nc2C)CCN1C1CCN(C(=O)c2ccc(Cl)nc2N)CC1", "display_unit": "µM·h", "reported": 12.1}
{"smiles_repr": "CC[C@H]1CN(c2nc(N)c(C(N)=O)nc2Cl)CCN1C1CCN(Cc2ccc(Cl)cc2)CC1", "display_unit": "µM·h", "reported": 5.1}

====

Quick reference: inhibition at 10 µM of the listed items.
- experimental_system: hERG (KCNH2) (Homo sapiens, UniProt Q12809)
- Sequence (Q12809 whole entry): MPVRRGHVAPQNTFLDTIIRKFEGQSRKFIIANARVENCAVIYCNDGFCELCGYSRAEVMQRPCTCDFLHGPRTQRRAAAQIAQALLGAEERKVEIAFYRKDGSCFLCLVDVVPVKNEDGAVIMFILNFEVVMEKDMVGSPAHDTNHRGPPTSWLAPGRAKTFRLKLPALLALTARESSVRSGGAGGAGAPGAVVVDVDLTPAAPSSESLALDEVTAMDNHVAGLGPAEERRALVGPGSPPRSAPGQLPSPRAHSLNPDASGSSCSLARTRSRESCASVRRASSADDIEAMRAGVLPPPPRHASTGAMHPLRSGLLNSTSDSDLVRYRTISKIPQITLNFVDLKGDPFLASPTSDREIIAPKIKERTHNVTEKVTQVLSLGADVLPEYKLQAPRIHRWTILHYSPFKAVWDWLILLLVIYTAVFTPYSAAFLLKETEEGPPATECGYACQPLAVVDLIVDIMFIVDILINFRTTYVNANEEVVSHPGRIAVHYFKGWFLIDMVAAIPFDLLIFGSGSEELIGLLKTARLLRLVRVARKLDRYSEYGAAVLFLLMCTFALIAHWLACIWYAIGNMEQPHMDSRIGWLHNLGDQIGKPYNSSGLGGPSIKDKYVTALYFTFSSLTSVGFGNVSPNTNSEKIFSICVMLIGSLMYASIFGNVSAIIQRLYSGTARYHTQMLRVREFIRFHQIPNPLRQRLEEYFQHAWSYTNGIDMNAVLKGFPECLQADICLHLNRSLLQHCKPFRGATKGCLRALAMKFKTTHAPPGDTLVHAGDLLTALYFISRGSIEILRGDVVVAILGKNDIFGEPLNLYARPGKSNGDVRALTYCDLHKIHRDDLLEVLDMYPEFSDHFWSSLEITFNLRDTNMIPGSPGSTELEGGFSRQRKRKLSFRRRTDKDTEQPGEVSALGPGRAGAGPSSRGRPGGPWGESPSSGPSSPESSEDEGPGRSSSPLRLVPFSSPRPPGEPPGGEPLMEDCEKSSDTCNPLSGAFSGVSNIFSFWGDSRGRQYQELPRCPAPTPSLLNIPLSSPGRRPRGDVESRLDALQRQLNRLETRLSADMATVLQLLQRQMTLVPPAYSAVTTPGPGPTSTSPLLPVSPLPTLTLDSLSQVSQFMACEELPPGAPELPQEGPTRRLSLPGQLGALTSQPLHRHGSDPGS
- procedure_details: Inhibition of human ERG at 10 uM by rubidium efflux assay

{"smiles_repr": "CC[C@H]1CN(c2ncc(C(=O)NC)nc2C)CCN1C1CCN(C(=O)c2ccc(Cl)cc2)CC1", "inhibition at 10 µM / %": 41}
{"smiles_repr": "CC[C@H]1CN(c2ncc(C(=O)NCCO)nc2Cl)CCN1C1CCN(C(=O)c2ccc(Cl)nc2N)CC1", "inhibition at 10 µM / %": 11}
{"smiles_repr": "CC[C@H]1CN(c2nc(N)c(C(=O)NCCO)nc2Cl)CCN1C1CCN(C(=O)c2ccc(Cl)nc2N)CC1", "inhibition at 10 µM / %": 17}
{"smiles_repr": "CC[C@H]1CN(c2ncc(C(N)=O)nc2C(F)(F)F)CCN1C1CCN(C(=O)c2ccc(Cl)nc2N)CC1", "inhibition at 10 µM / %": 0}
{"smiles_repr": "CC[C@@H]1CN(C2CCN(C(=O)c3ccc(Cl)cc3)CC2)[C@@H](CC)CN1c1ncc(C(N)=O)nc1C", "inhibition at 10 µM / %": 13}
{"smiles_repr": "CC[C@H]1CN(c2ncc(C(=O)NC[C@@H](C)O)nc2Cl)CCN1C1CCN(C(=O)c2ccc(Cl)nc2N)CC1", "inhibition at 10 µM / %": 17}
{"smiles_repr": "CC[C@H]1CN(c2nc(N)c(C(=O)NCCNS(N)(=O)=O)nc2Cl)CCN1C1CCN(Cc2ccc(F)c(F)c2)CC1", "inhibition at 10 µM / %": 4}
{"smiles_repr": "CC[C@H]1CN(c2nc(N)c(C(N)=O)nc2Cl)CCN1C1CCN(Cc2ccc(Cl)cc2[C@H](O)C(N)=O)CC1", "inhibition at 10 µM / %": 14}

====

- experimental_system: C-X-C chemokine receptor type 3 (Homo sapiens)
- Sequence (P49682 whole entry): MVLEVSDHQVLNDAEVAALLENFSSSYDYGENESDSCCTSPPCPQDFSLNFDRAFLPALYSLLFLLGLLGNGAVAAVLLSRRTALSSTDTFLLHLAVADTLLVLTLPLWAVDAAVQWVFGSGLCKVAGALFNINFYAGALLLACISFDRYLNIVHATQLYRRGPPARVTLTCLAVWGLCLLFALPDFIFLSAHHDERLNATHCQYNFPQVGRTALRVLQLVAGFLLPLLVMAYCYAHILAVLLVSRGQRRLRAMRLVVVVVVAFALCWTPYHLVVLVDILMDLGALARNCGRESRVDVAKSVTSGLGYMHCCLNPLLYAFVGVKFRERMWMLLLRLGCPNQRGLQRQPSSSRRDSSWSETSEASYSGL
- procedure_details: Displacement of [125I]CXCL10 from human CXCR3 expressed in mouse BA/F3 cells

{"smiles_repr": "CC[C@H]1CN(c2nc(N)c(C(=O)NCCO)nc2Cl)CCN1C1CCN(C(=O)c2ccc(Cl)nc2N)CC1", "IC50 / nM": 3.4}
{"smiles_repr": "CC[C@H]1CN(c2nc(N)c(C(=O)NCCS(C)(=O)=O)nc2Cl)CCN1C1CCN(Cc2ccc(Cl)cc2)CC1", "IC50 / nM": 6.4}
{"smiles_repr": "CC[C@H]1CN(c2nc(N)c(C(=O)NCCNS(N)(=O)=O)nc2Cl)CCN1C1CCN(Cc2ccc(F)c(F)c2)CC1", "IC50 / nM": 9}
{"smiles_repr": "CC[C@H]1CN(c2nc(N)c(C(=O)NC)nc2Cl)CCN1C1CCN(Cc2ccc(Cl)cc2)CC1", "IC50 / nM": 0.3}
{"smiles_repr": "CC[C@@H]1CN(C2CCN(C(=O)c3ccc(Cl)cc3)CC2)[C@@H](CC)CN1c1ncc(C(N)=O)nc1C", "IC50 / nM": 235}
